Attribution: patent US20250057968A1

- tested.on: T1, Human DLL3 full-length protein on cells (human, UniProt Q9NYJ7 27-618)
- T1 construct: H1184 and DMS53 express DLL3 themselves; The cell line is named under assay; also called H1184 cells; DLL3/H82
- T1 sequence: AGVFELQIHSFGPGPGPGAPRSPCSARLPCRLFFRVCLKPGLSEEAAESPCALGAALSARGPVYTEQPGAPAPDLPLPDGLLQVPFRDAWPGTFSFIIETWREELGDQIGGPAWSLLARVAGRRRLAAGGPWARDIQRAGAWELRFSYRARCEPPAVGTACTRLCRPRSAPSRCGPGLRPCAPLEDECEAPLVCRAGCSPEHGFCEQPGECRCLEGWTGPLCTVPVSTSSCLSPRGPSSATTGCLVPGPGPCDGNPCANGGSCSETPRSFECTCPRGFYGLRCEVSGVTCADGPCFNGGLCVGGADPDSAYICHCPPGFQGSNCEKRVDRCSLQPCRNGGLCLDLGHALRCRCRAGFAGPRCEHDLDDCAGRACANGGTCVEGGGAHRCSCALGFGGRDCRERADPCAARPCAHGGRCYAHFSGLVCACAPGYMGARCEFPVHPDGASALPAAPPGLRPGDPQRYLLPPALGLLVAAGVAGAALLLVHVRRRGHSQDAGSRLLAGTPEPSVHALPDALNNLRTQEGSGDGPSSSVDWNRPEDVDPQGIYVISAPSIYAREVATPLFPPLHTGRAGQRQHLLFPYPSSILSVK
- test: FACS on DLL3/H82 cells
metric: pEC50
Numbers only, as −log10 of the molar value.

Answered examples (8):
>  <binder>
hAb100L2H3 (antibody, human IgG1, kappa, V domains shown) VH: EVQLVESGGGLVKPGGSLRLSCAASGFTFSDSGMHWIRQAPGKGLEWVAYISSGSSTIHYADTVKGRFTISRDNAKNSLYLQMNSLRAEDTAVYYCASPLYHYGRSYNAVAYWGQGTTVTVSS VL: DIQMTQSPSSLSASVGDRVTITCHASQNINVWLSWYQQKPGKIPKLLIYKASDLHTGVPSRFSGSGSGTDFTLTISSLQPEDVATYYCQQGQSYPLTFGGGTKVEIKR

>  <pEC50>
9.52

$$$$
>  <binder>
hAb100L2H4 (antibody, human IgG1, kappa, V domains shown) VH: EVQLVESGGGLVKPGGSLRLSCAASGFTFSDSGMHWIRQAPGKGLEWVAYISSGSSTIHYADTVKGRFTISRDNAKNSLYLQMNSLRAEDTAVYYCASPLYYYGRSYNGVAYWGQGTTVTVSS VL: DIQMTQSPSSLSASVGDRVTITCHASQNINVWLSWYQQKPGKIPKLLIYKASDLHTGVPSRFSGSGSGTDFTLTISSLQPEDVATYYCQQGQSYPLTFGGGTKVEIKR

>  <pEC50>
9.49

$$$$
>  <binder>
hAb100L1H4 (antibody, human IgG1, kappa, V domains shown) VH: EVQLVESGGGLVKPGGSLRLSCAASGFTFSDSGMHWIRQAPGKGLEWVAYISSGSSTIHYADTVKGRFTISRDNAKNSLYLQMNSLRAEDTAVYYCASPLYYYGRSYNGVAYWGQGTTVTVSS VL: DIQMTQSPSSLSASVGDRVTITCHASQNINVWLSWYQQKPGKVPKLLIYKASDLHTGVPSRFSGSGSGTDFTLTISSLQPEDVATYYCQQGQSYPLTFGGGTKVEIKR

>  <pEC50>
9.66

$$$$
>  <binder>
M100CHI (antibody, human IgG1, kappa, V domains shown, murine variable regions on human IgG1 / kappa constant regions; also called chimeric antibody of mAb100) VH: EVQLVESGGGLVKPGGSLKLSCAASGFTFSDSGMHWIRQAPEKGLEWVAYISSGSSTIHYADTVKGRFTISRDNAKNTLFLQMTSLRSEDTAMYYCASPLYYYGRSYNAVAYWGQGTSVTVSS VL: DIQMNQSPSSLSASLGDTITITCHASQNINVWLSWYQQKPGNIPKLLIYKASDLHTGVPSRFSGSGSGTGFTLTISSLQPEDIATYYCQQGQSYPLTFGGGTKLEIKR

>  <pEC50>
9.60

$$$$
>  <binder>
Hu100 (antibody, human IgG1, kappa, V domains shown, also called hAb100L1H1) VH: EVQLVESGGGLVKPGGSLRLSCAASGFTFSDSGMHWIRQAPGKGLEWVSYISSGSSTIHYADTVKGRFTISRDNAKNSLYLQMNSLRAEDTAVYYCASPLYYYGRSYNAVAYWGQGTTVTVSS VL: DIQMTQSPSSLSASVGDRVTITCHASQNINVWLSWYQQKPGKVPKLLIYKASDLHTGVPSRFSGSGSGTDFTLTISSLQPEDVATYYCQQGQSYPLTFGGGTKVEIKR

>  <pEC50>
9.62

$$$$
>  <binder>
hAb100L1H2 (antibody, human IgG1, kappa, V domains shown) VH: EVQLVESGGGLVKPGGSLRLSCAASGFTFSDSGMHWIRQAPGKGLEWVAYISSGSSTIHYADTVKGRFTISRDNAKNSLYLQMNSLRAEDTAVYYCASPLYYYGRSYNAVAYWGQGTTVTVSS VL: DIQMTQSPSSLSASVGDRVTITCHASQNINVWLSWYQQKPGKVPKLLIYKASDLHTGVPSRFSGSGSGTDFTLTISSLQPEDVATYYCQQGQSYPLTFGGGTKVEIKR

>  <pEC50>
9.52

$$$$
>  <binder>
hAb100L1H3 (antibody, human IgG1, kappa, V domains shown) VH: EVQLVESGGGLVKPGGSLRLSCAASGFTFSDSGMHWIRQAPGKGLEWVAYISSGSSTIHYADTVKGRFTISRDNAKNSLYLQMNSLRAEDTAVYYCASPLYHYGRSYNAVAYWGQGTTVTVSS VL: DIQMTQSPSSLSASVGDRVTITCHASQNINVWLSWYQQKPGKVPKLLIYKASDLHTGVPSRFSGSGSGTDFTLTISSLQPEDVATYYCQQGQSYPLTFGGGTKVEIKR

>  <pEC50>
9.60

$$$$
>  <binder>
hAb100L2H2 (antibody, human IgG1, kappa, V domains shown) VH: EVQLVESGGGLVKPGGSLRLSCAASGFTFSDSGMHWIRQAPGKGLEWVAYISSGSSTIHYADTVKGRFTISRDNAKNSLYLQMNSLRAEDTAVYYCASPLYYYGRSYNAVAYWGQGTTVTVSS VL: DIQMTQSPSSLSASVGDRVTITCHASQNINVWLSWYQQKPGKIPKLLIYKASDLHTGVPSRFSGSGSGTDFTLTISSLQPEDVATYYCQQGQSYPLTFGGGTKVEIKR

>  <pEC50>
9.80

$$$$

Note: attention shifts to another entry.
(Q) Which pEC50 value belongs to hAb100L2H1 (antibody, human IgG1, kappa, V domains shown) VH: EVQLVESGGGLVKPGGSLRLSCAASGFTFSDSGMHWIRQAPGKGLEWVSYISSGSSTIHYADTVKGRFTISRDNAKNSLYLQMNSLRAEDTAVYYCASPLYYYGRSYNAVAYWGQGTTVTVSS VL: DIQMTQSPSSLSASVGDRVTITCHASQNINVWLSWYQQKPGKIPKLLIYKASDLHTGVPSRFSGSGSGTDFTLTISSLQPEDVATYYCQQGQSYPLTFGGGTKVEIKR ?
(A) 9.54
